# Tested on: serum cholesterol and serum triglycerides
# experiment-description: Hypolipidaemic activity in rats (compound in diet, last 7 of 10 days)
# Type: in vivo, Male Wistar rats
# recorded-conditions: Rattus norvegicus, po, 168 h, 0.2 % w/w dose in diet, 7 days, read-out: % change in serum cholesterol compared with control
Entries annotated with measured change in vivo at 0.2 % strength

>  <compound>
CCCCCCCCCCCCCCCCCCCCc1cc2cc(C(=O)O)ccc2[nH]1

>  <change in vivo at 0.2 % strength / %>
-36

$$$$
>  <compound>
CCCCCCCCCCCCCCCCc1cc2cc(C(=O)O)ccc2[nH]1

>  <change in vivo at 0.2 % strength / %>
-52

$$$$
>  <compound>
CCCCCCCCCCCCc1cc2cc(C(=O)OC)ccc2[nH]1 [Compound AVV, methyl 2-(n-dodecyl)indole-5-carboxylate]

>  <change in vivo at 0.2 % strength / %>
-21

$$$$
>  <compound>
CCCCCCCCCCCCCCCCCCc1cc2cc(C(=O)O)ccc2[nH]1

>  <change in vivo at 0.2 % strength / %>
-43

$$$$
>  <compound>
CCCCCCCCCCCC1CNc2cc(C(=O)O)ccc21 (racemic)

>  <change in vivo at 0.2 % strength / %>
-10

$$$$
>  <compound>
CCCCCCCCCCCC1Cc2cc(C(=O)O)ccc2N1C (racemic)

>  <change in vivo at 0.2 % strength / %>
-15

$$$$
>  <compound>
CCCCCCCCCCCc1cc2cc(C(=O)OC)ccc2[nH]1 [Compound ATT, methyl 2-(n-undecyl)indole-5-carboxylate]

>  <change in vivo at 0.2 % strength / %>
-16

$$$$
>  <compound>
CCCCCCCCCCC1Cc2cc(C(=O)O)ccc2N1 (racemic)

>  <change in vivo at 0.2 % strength / %>
-26

$$$$
>  <compound>
CCCCCCCCCCCCCCCCC1CNc2cc(C(=O)OC)ccc21 (racemic)

>  <change in vivo at 0.2 % strength / %>
6

$$$$
>  <compound>
CCCCCCCCCCC1Cc2ccc(C(=O)O)cc2N1 (racemic)

>  <change in vivo at 0.2 % strength / %>
-32

$$$$
>  <compound>
CCCCCCCCCCCCCCCCCCc1cc2ccc(C(=O)O)cc2[nH]1

>  <change in vivo at 0.2 % strength / %>
3

$$$$
>  <compound>
CCCCCCCCCCCCCc1cc2ccc(C(=O)O)cc2[nH]1

>  <change in vivo at 0.2 % strength / %>
-26

$$$$
